- assay.text: Caspase-3/7 induction in CHO-K1 cells by small molecules, qHTS cell viability counter screen (AID 1346979); note: nearly all actives have a fitted effect of over 35% in size
- particulars: CellTiter-Fluor fluorescence, 17 h; series mostly up to 92.4 µM
Results filed as inconclusive are left out. Activity calls are given as the source filed them. Calls come from the whole dose curve; as a rule, active = well fitted cell-killing curve with a large enough effect in the repeat runs; inconclusive = weak or mixed curves, or effect the other way; inactive = no such curve, though single readings can be large or run the other way.
Form entry, call: pick from active, inactive

Past entries and their recorded results:
CC(=O)OCC=C(C)C ... inactive
Cc1ccc(N/N=c2\c(=O)cc/c(=N\Nc3ccc(S(=O)(=O)O)cc3)c2=O)c(C)c1 ... active
CC(=O)Oc1cc2c(s1)CCN(C(C(=O)C1CC1)c1ccccc1F)C2 (centres undefined) ... inactive

State the result this test recorded for O=C(Nc1ccc2c(O)c(N=Nc3ccc(N=Nc4ccc(S(=O)(=O)O)cc4)cc3)c(S(=O)(=O)O)cc2c1)c1ccccc1 .
active

State the result this test recorded for OC[C@@H](O)[C@@H](O)CO .
inactive

State the result this test recorded for O=C(O)c1cc(N=Nc2ccc([N+](=O)[O-])cc2)ccc1O .
active

State the result this test recorded for CC1(C)CCC[C@]2(C)[C@H]3CC(=O)O[C@]3(C)CC[C@@H]12 .
inactive

State the result this test recorded for CC1(C)CC(O)CC(C)(C)N1 .
inactive

State the result this test recorded for CCCCCCOC(=O)C(C)CC (centres undefined) .
inactive
